List of FP signal values.
Biological target: 14-3-3β/CFTRpS753pS768 complex (Homo sapiens, UniProt P13569+P31946)
Construct: His6 (cleaved yes); made in house; peptide synthetic
Sequence (P31946 whole entry): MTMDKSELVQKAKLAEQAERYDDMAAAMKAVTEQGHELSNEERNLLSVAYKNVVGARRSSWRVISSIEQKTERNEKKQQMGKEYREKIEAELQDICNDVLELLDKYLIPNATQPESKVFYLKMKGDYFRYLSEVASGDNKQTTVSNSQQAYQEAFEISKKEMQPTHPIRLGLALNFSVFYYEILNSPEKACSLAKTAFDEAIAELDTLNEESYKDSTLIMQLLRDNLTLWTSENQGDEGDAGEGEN
Sequence (P13569 747-774 limits assumed): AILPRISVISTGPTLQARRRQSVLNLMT
Assay: Dose-response fluorescence polarization (FP) assay, compound titration
Format: binding
Conditions: With 14-3-3; compound 6.25e-5 M
No unit in the answer, only the number.

Some solved cases for reference:
compound	FP signal
CN1CC(=O)NC(CCCNC(=N)N)C(=O)NC(CCC(N)=O)C(=O)NC(CCCNC(=N)N)C(=O)NCc2ccccc2-c2cccc(c2)C1 (stereo not drawn) [CY007491]	35
N=C(N)NCCCC1NC(=O)C(CCCCN)NCc2ccccc2Sc2ccccc2CNC(=O)C(Cc2ccc(O)cc2)NC1=O (stereo not drawn) [CY001951]	33
NCCCCC1NCc2ccccc2Sc2ccccc2CNC(=O)C(Cc2cccc(Cl)c2)NC(=O)C(Cc2ccc(O)cc2)NC1=O (stereo not drawn) [CY007288]	55
N=C(N)NCCCC1NCc2ccccc2Sc2ccccc2CNC(=O)C(Cc2ccc(O)cc2)NC(=O)C(CCCN)NC1=O (stereo not drawn) [CY007424]	193

Input N=C(N)NCCCC1NC(=O)C(CCC(N)=O)NC(=O)C(CCCNC(=N)N)NC(=O)C2CCCN2Cc2cccc(c2)-c2ccccc2CNC1=O (stereo not drawn) [CY007455] . Output FP signal: 53

So for C=CC(C)(C)OC[C@H]1O[C@H](O[C@@H]2C3=C([C@H](C)COC(C)=O)C[C@H](O)[C@]3(C)/C=C3/[C@@H](COC)CC[C@H]3[C@@H](C)[C@H]2O)[C@H](O)[C@@H](OC(C)=O)[C@@H]1O [FC-A, fusicoccin A, reference compound] , the logged FP signal turned out to be 70

Noted for NCCCC1NCc2ccccc2Sc2ccccc2CNC(=O)C(Cc2c[nH]c3ccccc23)NC(=O)C(Cc2ccccc2)NC1=O (stereo not drawn) [CY007345] : its FP signal reads 137

For record CC1NC(=O)C(CCCNC(=N)N)NC(=O)C2CCCN2Cc2cccc(c2)-c2ccccc2CNC(=O)C(CCCNC(=N)N)NC1=O (stereo not drawn) [CY007476] the listed FP signal is 59

FP signal in this record for N=C(N)NCCCC1NC(=O)C(CCC(N)=O)NC(=O)C(CCCNC(=N)N)NC(=O)C2CCCN2Cc2cccc(c2)-c2ccccc2CNC1=O (stereo not drawn) [CY007458] : 65
